AC50 for assorted compounds
Experimental target: Alpha-2A adrenergic receptor (Homo sapiens, UniProt P08913); note: assay procedure not described here
Sequence (P08913 whole entry): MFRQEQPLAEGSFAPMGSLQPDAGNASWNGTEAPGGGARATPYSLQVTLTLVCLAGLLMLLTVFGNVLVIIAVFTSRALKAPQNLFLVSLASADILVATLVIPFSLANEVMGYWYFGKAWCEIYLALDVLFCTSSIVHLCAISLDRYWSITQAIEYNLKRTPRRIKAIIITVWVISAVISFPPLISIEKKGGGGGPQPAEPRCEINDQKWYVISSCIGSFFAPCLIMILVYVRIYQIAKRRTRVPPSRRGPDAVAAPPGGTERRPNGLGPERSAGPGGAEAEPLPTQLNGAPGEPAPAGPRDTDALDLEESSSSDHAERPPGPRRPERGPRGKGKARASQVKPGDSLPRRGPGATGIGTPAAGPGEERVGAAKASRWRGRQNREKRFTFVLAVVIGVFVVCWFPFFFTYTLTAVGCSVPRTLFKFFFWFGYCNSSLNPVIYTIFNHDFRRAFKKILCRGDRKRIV
Type: functional, cell-based

// known answers, use as guide
CCC(C)C1(CC)C(=O)NC(=O)NC1=O (configuration not stated)	> 30 µM
CCOC(=O)C1=C(C)NC(C)=C(C(=O)OC)C1c1cccc([N+](=O)[O-])c1 (configuration not stated)	> 10 µM
CC(N)C12CC3CC(CC(C3)C1)C2 (configuration not stated)	> 10 µM
CCN(CC)CCN1C(=O)CN=C(c2ccccc2F)c2cc(Cl)ccc21	> 10 µM
Cc1cnc(C(=O)NCCc2ccc(S(=O)(=O)NC(=O)NC3CCCCC3)cc2)cn1 [GLIPIZIDE]	> 10 µM
Cc1cc(C(C)(C)C)cc(C)c1CC1=NCCN1	> 30 µM

According to the records, this compound C[C@H](CCC(=O)O)[C@H]1CC[C@H]2[C@@H]3[C@@H](O)C[C@@H]4C[C@H](O)CC[C@]4(C)[C@H]3CC[C@]12C displays AC50 of > 30 µM

Given item CCCC(CCC)C(N)=O [VALPROMIDE] , the value recorded as its AC50 is > 10 µM

Reported AC50 of COc1cc2nccc(Oc3ccc(NC(=O)C4(C(=O)Nc5ccc(F)cc5)CC4)cc3)c2cc1OC [CABOZANTINIB] : > 30 µM

Form field AC50, entry [H]/N=C(/N)N/C(=N/[H])NCCc1ccccc1 : > 10 µM

# AC50 (compound: Nc1cc(-c2ccncc2)c[nH]c1=O ) is > 10 µM

Record CC(C)[C@H](N)C(=O)OCC(CO)OCn1cnc2c(=O)nc(N)[nH]c21 (some centres not stated) . Reported AC50: > 30 µM

// recorded AC50 for CCOC(=O)O[C@]1(C(=O)OCCl)CC[C@H]2[C@@H]3CCC4=CC(=O)C=C[C@]4(C)[C@H]3[C@@H](O)C[C@@]21C [LOTEPREDNOL ETABONATE] : > 30 µM

Entry CC1(C)S[C@@H]2[C@H](NC(=O)[C@H](N)c3ccccc3)C(=O)N2[C@H]1C(=O)OCOC(=O)[C@@H]1N2C(=O)C[C@H]2S(=O)(=O)C1(C)C , AC50 reported as > 30 µM

Measured AC50, CN(C)CC[C@@H](c1ccc(Cl)cc1)c1ccccn1 : > 30 µM

Reported AC50 of CC(=O)SC[C@@H](C)C(=O)N1CCC[C@H]1C(=O)N[C@@H](Cc1ccccc1)C(=O)O : > 30 µM

For O=C1CN(/N=C/c2ccc(-c3ccc([N+](=O)[O-])cc3)o2)C(O)=N1 the compound record lists AC50 as > 10 µM
